CC50 values by entry
Test system: 143B
ASSAY_SUMMARY: In vitro cell cytotoxicity was determined against 143B-LTK cell line
Assay type: functional
EXPERIMENTAL_SETUP: Homo sapiens
Report the value in µM with no unit label.

query: CC50 of O=S(=O)(c1ccccc1)c1no[n+]([O-])c1S(=O)(=O)c1ccccc1 on 143B?
result: 0.028

// switching to the query compound
query: CC50 of Cc1cn([C@H]2C[C@H](O)[C@@H](COc3no[n+]([O-])c3S(=O)(=O)c3ccccc3)O2)c(=O)[nH]c1=O on 143B?
result: 5.6

====

Test system: EMT6
ASSAY_SUMMARY: In vitro cell cytotoxicity was determined against EMT-6 cell line
Type: functional
EXPERIMENTAL_SETUP: Mus musculus
CC50 values by entry
Report the value in nM with no unit label.

query: Find the recorded CC50 belonging to O=c1[nH]c(=O)n([C@H]2C[C@H](O)[C@@H](COc3no[n+]([O-])c3S(=O)(=O)c3ccccc3)O2)cc1F and report it.
result: 60

query: Find the recorded CC50 belonging to O=c1ccn([C@H]2C[C@H](O)[C@@H](COc3no[n+]([O-])c3S(=O)(=O)c3ccccc3)O2)c(=O)[nH]1 and report it.
result: 750

query: Find the recorded CC50 belonging to O=c1ccn([C@H]2C[C@H](Oc3no[n+]([O-])c3S(=O)(=O)c3ccccc3)[C@@H](CO)O2)c(=O)[nH]1 and report it.
result: 80

query: Find the recorded CC50 belonging to Cc1cn([C@H]2C[C@H](Oc3no[n+]([O-])c3S(=O)(=O)c3ccccc3)[C@@H](CO)O2)c(=O)[nH]c1=O and report it.
result: 2400

query: Find the recorded CC50 belonging to Cc1cn([C@H]2C[C@H](O)[C@@H](COc3no[n+]([O-])c3S(=O)(=O)c3ccccc3)O2)c(=O)[nH]c1=O and report it.
result: 2000

***
query: Find the recorded CC50 belonging to O=c1[nH]c(=O)n([C@H]2C[C@H](Oc3no[n+]([O-])c3S(=O)(=O)c3ccccc3)[C@@H](CO)O2)cc1F and report it.
result: 2000

query: Find the recorded CC50 belonging to O=S(=O)(c1ccccc1)c1no[n+]([O-])c1S(=O)(=O)c1ccccc1 and report it.
result: 100

query: Find the recorded CC50 belonging to COc1no[n+]([O-])c1S(=O)(=O)c1ccccc1 and report it.
result: 560
